ASSAY NAME: Cytotoxicity against human HepG2 cells assessed as reduction in cell viability by measuring toxic concentration incubated for 24 hrs by MTT assay
Format: toxicity, cell-based
MEASUREMENT CONTEXT: read-out: TC50
MEASUREMENT NAME: CC50 at 24 h (µM)
The reply should be a number in µM, with the unit left off.

// lookup CC50 at 24 h for COc1cccc(Cn2c(NC[C@@H](C)O)nc3c2c(=O)n(C)c(=O)n3C)c1
89.2

// lookup CC50 at 24 h for COc1cccc(Cn2c(NCCO)nc3c2c(=O)n(C)c(=O)n3C)c1
45.5

// lookup CC50 at 24 h for Cn1c(=O)c2c(nc(NCCO)n2Cc2ccc(F)c(C(F)(F)F)c2)n(C)c1=O
55.1

// lookup CC50 at 24 h for Cn1c(=O)c2c(nc(NCCO)n2Cc2ccccc2)n(C)c1=O
85.5
